System: DU-145 prostate
Experiment: NCI tumour cell line growth inhibition, 48 h

>  <compound>
Cc1cc(N2CCN(C)CC2)nc(N(CCNc2ccnc3cc(Cl)ccc23)Cc2ccco2)n1

>  <TGI>
19 µM

$$$$
>  <compound>
Clc1cc2nnn(C3CCCCO3)c2cc1Cl (stereo not given)

>  <TGI>
> 100 µM

$$$$
>  <compound>
CC(C)(C)C(=O)CC(=O)C(F)(F)C(F)(F)C(F)(F)F.CC(C)(C)C(=O)CC(=O)C(F)(F)C(F)(F)C(F)(F)F.CC(C)(C)C(=O)CC(=O)C(F)(F)C(F)(F)C(F)(F)F.[Er]

>  <TGI>
> 100 µM

$$$$
>  <compound>
Cn1c2c(c3ccccc31)CC(=O)N1CCCC(C1)CC21OCCO1 (stereo not given)

>  <TGI>
> 100 µM

$$$$
>  <compound>
CN1C(=O)CN=C(c2ccccc2F)c2cc(N=C=S)ccc21

>  <TGI>
> 100 µM

$$$$
>  <compound>
O=C(Nc1sccc1S(=O)(=O)c1ccc(Cl)cc1)c1ccc(Cl)cc1Cl

>  <TGI>
> 100 µM

$$$$
>  <compound>
c1csc(-c2sc(-c3ccsc3)cc2Cc2ccsc2)c1

>  <TGI>
> 10 µM

$$$$
>  <compound>
CC[C@@]1(O)C(=O)OCc2c1cc1n(c2=O)Cc2cc3c(Cl)c4c(cc3nc2-1)OCO4

>  <TGI>
> 100 µM

$$$$
>  <compound>
O=CN1CCN(C(=O)c2ccc(Cl)cc2)C1=S

>  <TGI>
29.1 µM

$$$$
>  <compound>
c1ccc(-c2sc(-c3ccccc3)c3c2C2CCC3C2)cc1

>  <TGI>
> 100 µM

$$$$

----------
Test system: UACC-257 melanoma
Test: NCI tumour cell line growth inhibition, 48 h

>  <compound>
CC(=O)Nc1c(I)c(C(=O)O)c(I)c(N(C)C(C)=O)c1I

>  <TGI>
> 100 µM

$$$$
>  <compound>
O=C1C=Cc2c1csc2Br

>  <TGI>
> 100 µM

$$$$
>  <compound>
CCOC(=O)C(Cc1ccc2c(c1)CCC2)Cc1ccc2c(c1)CCC2

>  <TGI>
> 100 µM

$$$$
>  <compound>
OC1=CN=C(C2CC2)Oc2ccccc21

>  <TGI>
> 100 µM

$$$$
>  <compound>
CN(C)C=NCc1ccc2c(c1)OCO2

>  <TGI>
> 100 µM

$$$$
>  <compound>
C[N+](C)(C)CC(=O)N/N=C/c1oc(-c2cccc([N+](=O)[O-])c2)c(-c2cccc([N+](=O)[O-])c2)c1[N+](=O)[O-]

>  <TGI>
> 100 µM

$$$$
>  <compound>
C/C(=C\CCc1ccsc1)CC/C=C(\C)CCCN1CCN(CCO)CC1

>  <TGI>
16 µM

$$$$
>  <compound>
NC(Cc1ccc(O)cc1)C(=O)N/N=C/c1ccc(N(CCCl)CCCl)cc1 (stereo unspecified)

>  <TGI>
98.5 µM

$$$$
>  <compound>
C=CC(=O)N1CC2(CC(n3nc(-c4ccc(Oc5ccccc5)cc4)c4c(N)ncnc43)C2)C1

>  <TGI>
> 100 µM

$$$$
>  <compound>
C[As](C)SCC(NC(=O)CCC(N)C(=O)O)C(=O)NCC(=O)O.Cl.c1ccncc1 (stereo unspecified)

>  <TGI>
2.46 µM

$$$$
>  <compound>
Cc1ccc(S(=O)(=O)C(C#N)c2nc3ccccc3nc2N2CCOCC2)cc1 (stereo unspecified)

>  <TGI>
> 100 µM

$$$$

----------
Test system: BT-549 breast
Test: NCI tumour cell line growth inhibition, 48 h
*1 amine or outer side, *2 acyl side, *3 side chain or, on linkers, in order; H or OH if unused. Where a SMILES comes first, the peptide text is derived from it. Bridges are numbered along the chain shown (N, C = ends). Roman numbers before positions name the chains, in order. X23 = CCCCCCCCCCCCCCC(=O)NC(CCCCN[*:2])C(=O)CN1CCCC1C(=O)[*:1]

>  <compound>
CCOC(=O)c1c(SC)nc(-c2ccc(Cl)cc2)sc1=N

>  <TGI>
> 100 µM

$$$$
>  <compound>
CC(=O)C1=C(C)N(c2ccc(C)cc2)C2(O)C=CC(=O)C3=C(O)c4ccccc4C(=O)C312 (stereo not given)

>  <TGI>
38.9 µM

$$$$
>  <compound>
CC(=O)OCC1OC(N2C(=O)CC(N)=Nc3ccccc32)C(OC(C)=O)C(OC(C)=O)C1OC(C)=O (stereo not given)

>  <TGI>
> 100 µM

$$$$
>  <compound>
N#Cc1ccc(N2Cc3cc(Cl)ccc3OC3=C2C(=O)N(Cc2ccc(F)cc2)C3=O)cc1

>  <TGI>
0.356 µM

$$$$
>  <compound>
COc1ccc(-c2nnc(Nc3nc(O)c(C4=c5cc(OC(F)(F)F)ccc5=NC4=O)s3)o2)cc1

>  <TGI>
37.7 µM

$$$$
>  <compound>
CC(C)(C)OC(=O)N1CCCC1C(=O)NCCNc1ccc(NCCNC(=O)C2CCCN2C(=O)OC(C)(C)C)c2c1C(=O)c1ccccc1C2=O (stereo not given)

>  <TGI>
25.7 µM

$$$$
>  <compound>
O=S1CCN(Cc2ccc(-c3ccc4ncnc(Nc5ccc(OCc6ccccc6)c(F)c5)c4c3)o2)CC1

>  <TGI>
> 22.8 µM

$$$$
>  <compound>
Cc1ccc(-n2nnc3c(sc4ccccc43)c2=O)cc1

>  <TGI>
> 100 µM

$$$$
>  <compound>
COc1ccc(/C=N/NS(=O)(=O)c2ccc(/C=C3\NC(=O)N(C)C3=O)cc2)cc1

>  <TGI>
> 100 µM

$$$$
>  <compound>
Cc1ccc(S(=O)(=O)Nn2c(C)cc3ccc(S(=O)(=O)Nc4ccccc4[N+](=O)[O-])cc3c2=O)cc1

>  <TGI>
> 100 µM

$$$$
>  <compound>
c1csc(-c2cscc2-c2cccs2)c1

>  <TGI>
> 100 µM

$$$$
>  <compound>
OCCSCc1cc(Cl)cc(Cl)c1O

>  <TGI>
> 100 µM

$$$$
>  <compound>
NS(=O)(=O)c1cccc(-c2cc3ccncc3cc2OCc2ccccc2)c1

>  <TGI>
> 25 µM

$$$$
>  <compound>
Cc1ccc(N(C)S(=O)(=O)c2ccccc2)cc1

>  <TGI>
> 100 µM

$$$$
>  <compound>
Cc1cn(C2CC(N=[N+]=[N-])C(CO)O2)c(=O)[nH]c1=O (stereo not given)

>  <TGI>
> 1000 µM

$$$$
>  <compound>
CCOC(=O)C1=COC(C)(C)CC1=O

>  <TGI>
> 100 µM

$$$$
>  <compound>
CCSC1=C(C#N)C2(CCCCC2)C2=C(CC(C)(C)CC2=O)N1

>  <TGI>
60.1 µM

$$$$
>  <compound>
c1cc2ccc3cc2cc1CNCCOCCNCc1ccc2ccc(cc2c1)CNCCOCCNC3

>  <TGI>
> 100 µM

$$$$
>  <compound>
C=CC(=O)N1CC2(CC(n3nc(-c4ccc(Oc5ccccc5)cc4)c4c(N)ncnc43)C2)C1

>  <TGI>
> 100 µM

$$$$
>  <compound>
c1ccc(CNCCCNCCCCNCCCNCc2ccccc2)cc1

>  <TGI>
33.3 µM

$$$$
>  <compound>
CCCCCCCCCCCCCCC(=O)NC(CCCCNC(=O)C1CCCN1C(=O)C(CCCCN)NC(=O)C(CCCCN)NC(=O)C(CCCCN)NC(=O)C(CCCNC(=N)N)NC(=O)C(CCCCN)NC(=O)C(N)C(C)C)C(=O)CN1CCCC1C(=O)NCC(=O)NC(Cc1ccccc1)C(=O)N1CCCC1C(=O)NC(CO)C(=O)NC(Cc1ccc(O)cc1)C(=O)NC(CCCCN)C(=O)NC(CC(C)C)C(=O)NC(CCCNC(=N)N)C(=O)N1CCCC1C(=O)NCC(N)=O (stereo not given) (I: GFPSYKLRPG-NH2 / II: H-VKRKKKP; linker I:N-II:C via X23; configuration not given here)

>  <TGI>
54.7 µM

$$$$
>  <compound>
O=CN(O)CC(=O)O.[Ni]

>  <TGI>
> 100 µM

$$$$
>  <compound>
COc1cccc2c1C(=O)c1c(O)c3c(c(O)c1C2=O)C[C@@](O)(C(C)=O)C[C@@H]3OC1CC(N(C)C)C(O)C(C)O1 (stereo not given in full)

>  <TGI>
0.00562 µM

$$$$
>  <compound>
Cc1ccc(-c2c3c(N)nc(-c4ccncc4)nc3nc3c2c(C)nn3-c2ccccc2)cc1

>  <TGI>
17.9 µM

$$$$
>  <compound>
Cn1c2c(c3ccccc31)CC(=O)N1CCCC(C1)CC21OCCO1 (stereo not given)

>  <TGI>
> 100 µM

$$$$
>  <compound>
CC[C@@]1(OC(=O)C(N)CCC(=O)O)C(=O)OCc2c1cc1n(c2=O)Cc2cc3ccccc3nc2-1 (stereo not given in full)

>  <TGI>
> 100 µM

$$$$
>  <compound>
CC(=O)NC1CCCN(O)C(=O)/C=C(/C)CCOC(=O)C(NC(C)=O)CCCN(O)C(=O)/C=C(/C)CCOC(=O)C(NC(C)=O)CCCN(O)C(=O)/C=C(/C)CCOC1=O.[Fe] (stereo not given)

>  <TGI>
> 100 µM

$$$$
>  <compound>
N#Cc1c(N)nc2c(N=Nc3ccccc3)c(N)nn2c1Nc1ccccc1

>  <TGI>
50.6 µM

$$$$
>  <compound>
O=NNc1ccc(Sc2ccc3ccccc3c2)cn1

>  <TGI>
77.1 µM

$$$$
>  <compound>
O=C(NCCSSCCNC(=O)/C(Cc1ccc(O)c(Br)c1)=N/O)/C(Cc1ccc(O)c(Br)c1)=N/O

>  <TGI>
15 µM

$$$$
>  <compound>
O=C(N/N=C/c1ccncc1)c1ccc(C(F)(F)F)nc1Nc1cccc(C(F)(F)F)c1

>  <TGI>
3.59 µM

$$$$
>  <compound>
CC(=O)c1c2c(cc3c1CC1(C3)Cc3ccc4c(c3C1=O)CCC4)CCC2 (stereo not given)

>  <TGI>
> 100 µM

$$$$
>  <compound>
c1ccc2c(c1)ccc1nc3ccccn3c12

>  <TGI>
> 100 µM

$$$$
>  <compound>
Nc1ncnc2c1ccn2CC=C(CO)CO

>  <TGI>
> 100 µM

$$$$
>  <compound>
Nc1nc(NNc2ccccc2F)cc(=O)[nH]1

>  <TGI>
> 100 µM

$$$$

Origin of the recorded values: PubChem BioAssay (NCI)
